Tested on: EPLC-272H
Procedure text: relative viability (nuclei count vs DMSO), 5 days (fraction); higher = more cells survive
Assay setup: first compound 0.1 µM
relative viability values by entry
Quantity: relative viability

compound="O=c1cc(N2CCOCC2)oc2c(-c3cccc4c3sc3ccccc34)cccc12 + O=C(c1cc(Cc2n[nH]c(=O)c3ccccc23)ccc1F)N1CCN(C(=O)C2CC2)CC1 [Olaparib] (partner 8 µM)" tested_on=EPLC-272H obs_value=0.848
compound="CCN(CC)CCCCNc1ncc2cc(-c3cc(OC)cc(OC)c3)c(NC(=O)NC(C)(C)C)nc2n1 + O=C(CCCCCCC(=O)Nc1ccccc1)NO [Vorinostat] (partner 1 µM)" tested_on=EPLC-272H obs_value=0.277
compound="CCN(CC)CCCCNc1ncc2cc(-c3cc(OC)cc(OC)c3)c(NC(=O)NC(C)(C)C)nc2n1 + C[C@]1(O)C[C@@H](c2nc(-c3ccc4ccc(-c5ccccc5)nc4c3)c3c(N)nccn32)C1 [Linsitinib] (partner 1 µM)" tested_on=EPLC-272H obs_value=1.1
compound="CCN(CC)CCCCNc1ncc2cc(-c3cc(OC)cc(OC)c3)c(NC(=O)NC(C)(C)C)nc2n1 + N=C(N)NC(=N)NCCc1ccccc1 [Phenformin] (partner 250 µM)" tested_on=EPLC-272H obs_value=0.236
compound="CCN(CC)CCCCNc1ncc2cc(-c3cc(OC)cc(OC)c3)c(NC(=O)NC(C)(C)C)nc2n1 + COc1cc2c(Oc3ccc(NC(=O)C4(C(=O)Nc5ccc(F)cc5)CC4)cc3F)ccnc2cc1OCCCN1CCOCC1 [Foretinib] (partner 0.25 µM)" tested_on=EPLC-272H obs_value=0.693

Hey, just so you know, these numbers are from the supplement of paper PMC10307832.
